System: NCI-H522 lung
protocolDescription: NCI tumour cell line growth inhibition, 48 h; in the data active = GI50 below about 0.43 µM; inactive = the rest
Classes to choose from: active, inactive

>  <compoundStructure>
C=C1C(=O)O[C@H]2[C@H]1CC/C(CNC(=O)c1c[nH]c3ccc(F)cc13)=C\CC[C@@]1(C)O[C@@H]21

>  <classLabel>
active

$$$$
>  <compoundStructure>
Clc1ccccc1C(c1ccccc1)(c1ccccc1)n1ccnc1

>  <classLabel>
inactive

$$$$
>  <compoundStructure>
COc1cc(-n2cc(-c3ccc(Cl)c(Cl)c3)nc2SCc2ccccc2)cc(OC)c1OC

>  <classLabel>
inactive

$$$$

With those in mind, consider the next compound.
Q: Query: recorded result category for O=C(Nc1nc2ccccc2s1)OCC(F)(F)F in this test
A: inactive

----------
As shown below, each of these molecules has a reported TGI value.
System: OVCAR-5 ovarian
protocolDescription: NCI tumour cell line growth inhibition, 48 h

Solved cases below.
>  <molecule>
COc1cccc(/C=C/C(=O)c2cc3c(N)c(C(=O)Nc4ccccc4C)sc3nc2C)c1

>  <TGI>
3.76 µM

$$$$
>  <molecule>
N#Cc1c(NC(=O)c2cccc(C(F)(F)F)c2)sc2c1CCC(=O)C2

>  <TGI>
3.97 µM

$$$$
>  <molecule>
CCOc1ccc(NC(=O)CC2Sc3ccccc3NC2=O)cc1 (stereo unspecified)

>  <TGI>
> 100 µM

$$$$
>  <molecule>
O=C1CCCN(c2ccccc2)N1

>  <TGI>
> 100 µM

$$$$
>  <molecule>
CCN1CCN(c2nc(NCCCNc3ccnc4cc(Cl)ccc34)c3ccccc3n2)CC1

>  <TGI>
11 µM

$$$$

Q: Could you tell me which TGI is on file for CCOC(=O)c1cc2c([N+](=O)[O-])c(NC(C)=O)ccc2s1 ?
A: > 100 µM

Q: Continue with O=C(NS(=O)(=O)Nc1ccc(Cl)cc1)OCc1ccc(Cl)cc1Cl
A: 70.3 µM

Q: Continue with N#C/C(=C\NC(=S)Nc1ccc(S(=O)(=O)Nc2ccccn2)cc1)C(N)=O
A: > 100 µM

Q: Continue with CCn1c(-c2nonc2N)nc2c(C#CCN)ncc(OCCCN)c21
A: > 25 µM

Q: Continue with C=CC(=O)N[C@H]1C=C(C)c2c(-c3cnc4ccccc4c3)c3c(N)ncnc3n2C1
A: 93.3 µM

----------
Tested on: MALME-3M melanoma
protocolDescription: NCI tumour cell line growth inhibition, 48 h
measuredMetric: TGI

Solved cases below.
>  <compound>
COc1cc(C(=O)NC2c3ccccc3-c3ccccc32)c(N)cc1OCc1ccccc1

>  <TGI>
> 76.6 µM

$$$$
>  <compound>
N#Cc1c(NC(=O)c2cccc(C(F)(F)F)c2)sc2c1CCC(=O)C2

>  <TGI>
1.12 µM

$$$$

Q: Could you tell me which TGI is on file for C=CC(=O)Nc1cccc(-c2nc(SC)nc(Nc3ccccc3OC)c2C#N)c1 ?
A: 3.44 µM

Q: Continue with O=C1CCCN(c2ccccc2)N1
A: > 100 µM

Q: Continue with N#Cc1c(NC(=S)NC(=O)c2ccccc2)nc2c(c1-c1ccccc1)CCC2
A: > 100 µM

Q: Continue with Cc1cc(-c2nc3ccccc3s2)ccc1NS(=O)(=O)O
A: > 100 µM

Q: Continue with COc1ccc2c(c1)c1c(n2CCN2CCOCC2)-c2ccccc2CC1
A: 66.6 µM

Q: Continue with CN(C)CC(=O)N1CCC(c2ccc(NC(=O)c3ncc(C#N)[nH]3)c(C3=CCCCC3)c2)CC1
A: 16.1 µM

Q: Continue with Nc1n[nH]c2ccc([C@@H]3Nc4ccc5[nH]ncc5c4[C@H]4[C@H]5CCC(C5)[C@H]43)cc12
A: > 47.5 µM

Q: Continue with O=C(CSc1nc2ccc([N+](=O)[O-])cc2[nH]1)Nc1ccc(F)c(Cl)c1
A: 6.96 µM

Q: Continue with C=CCSC[C@H](NC(=O)COc1ccccc1)C(=O)NC(C(=O)OCc1ccc([N+](=O)[O-])cc1)=C(C)C
A: > 100 µM

Q: Continue with C[C@]12OC[C@H](c3ccccc3)N1C(=O)C1[C@H]2CC12SCCS2 (some centres undefined)
A: > 100 µM

----------
As shown below, each of these compounds has a reported TGI value.
Tested on: SW-620 colon
protocolDescription: NCI tumour cell line growth inhibition, 48 h

Solved cases below.
>  <compound>
COc1ccc(/C=C/C=C(/C#N)C(N)=S)cc1

>  <assaySystem>
SW-620 colon

>  <measuredMetric>
TGI

>  <experimentalResult>
61.2 µM

$$$$
>  <compound>
CCOc1ccc(NC(=O)CC2Sc3ccccc3NC2=O)cc1 (centres undefined)

>  <assaySystem>
SW-620 colon

>  <measuredMetric>
TGI

>  <experimentalResult>
33.5 µM

$$$$
>  <compound>
FC(F)(F)c1nc(-c2ccccc2Cl)[nH]c1C(F)(F)F

>  <assaySystem>
SW-620 colon

>  <measuredMetric>
TGI

>  <experimentalResult>
6.63 µM

$$$$
>  <compound>
Cc1ccc2c(c1C)CC1(Cc3c(ccc4c3CCC4)C1=O)C2=O (centres undefined)

>  <assaySystem>
SW-620 colon

>  <measuredMetric>
TGI

>  <experimentalResult>
> 100 µM

$$$$
>  <compound>
CC[C@@H]1CC[C@@H]2[C@H](CC[C@]3(C)[C@@H](O)CC[C@@H]23)[C@H]1C(=O)O

>  <assaySystem>
SW-620 colon

>  <measuredMetric>
TGI

>  <experimentalResult>
> 100 µM

$$$$

Q: Under SW-620 colon: TGI value of CN1CCN(Cc2ccc(C(=O)Nc3cncc(C#Cc4cnc(N)c5ccccc45)c3)cc2C(F)(F)F)CC1 ?
A: 3.89 µM

Q: Continue with COc1ccc(-c2cc(-c3cc(Cl)ccc3Cl)nc3[nH]c(-c4cc(F)c(Cl)cc4Cl)cc(=O)c23)cc1
A: > 100 µM

Q: Continue with Cc1cn(C2C=CC(COP(=O)(OCC3=CC(=O)c4ccccc4C3=O)N(C)CCCCCl)O2)c(=O)[nH]c1=O (centres undefined)
A: 29.3 µM

Q: Continue with CC(=O)OC1=C2CC3(C)OC(=O)CC(C)(C)C3=CC=C2C=C(C(C)C)C1=O (centres undefined)
A: 1.14 µM

----------
As shown below, each of these compounds has a reported TGI value.
System: DU-145 prostate
protocolDescription: NCI tumour cell line growth inhibition, 48 h

Solved cases below.
>  <compound>
CCCCCCCCCCCCCC(=S)NCCCC[C@H](NC(=O)OCc1ccccc1)C(=O)Nc1ccccc1

>  <TGI>
> 100 µM

$$$$
>  <compound>
CC[C@@H]1CC[C@@H]2[C@H](CC[C@]3(C)[C@@H](O)CC[C@@H]23)[C@H]1C(=O)O

>  <TGI>
> 100 µM

$$$$
>  <compound>
N#CC1=C(N)OC2=C(CSc3ccccc32)C1c1ccc(Br)cc1 (stereo unspecified)

>  <TGI>
> 100 µM

$$$$
>  <compound>
CCc1c2c(nc3cc4c(cc13)OCO4)-c1cc3c(c(=O)n1C2)COC(=O)[C@]3(O)CC

>  <TGI>
> 100 µM

$$$$

Q: Could you tell me which TGI is on file for CCOC(=O)c1cc(C2(O)CCN(Cc3ccccc3)C2=O)c(-c2cc(C)no2)[nH]1 (stereo unspecified) ?
A: > 100 µM

Q: Continue with CO[C@@H](C(=O)OC1C=CC2(CC1)C(=O)N(C)c1ccccc12)c1ccccc1 (stereo partly specified)
A: > 100 µM

Q: Continue with COc1cc(-n2cc(-c3ccc(Cl)c(Cl)c3)nc2SCc2ccccc2)cc(OC)c1OC
A: > 100 µM

Q: Continue with Cc1cn(C2C=CC(COP(=O)(OCC3=CC(=O)c4ccccc4C3=O)N(C)CCCCCl)O2)c(=O)[nH]c1=O (stereo unspecified)
A: 3.06 µM

Q: Continue with CC(=O)C(CN1CCCCC1)C(c1ccccc1)c1c(O)c2ccccc2oc1=O (stereo unspecified)
A: > 100 µM

----------
As shown below, each of these compounds has a reported TGI value.
System: SNB-19 CNS
protocolDescription: NCI tumour cell line growth inhibition, 48 h

Solved cases below.
>  <compound>
O=C(O)c1ccc(NC(c2ccccc2)c2ccc3cccnc3c2O)cc1 (stereo not given)

>  <assaySystem>
SNB-19 CNS

>  <experimentalResult>
> 100 µM

$$$$
>  <compound>
CCOC(=O)C(OCC1CC=CCC1)Sc1ccccc1 (stereo not given)

>  <assaySystem>
SNB-19 CNS

>  <experimentalResult>
> 100 µM

$$$$
>  <compound>
O=C(NNc1nc2c(F)cccc2n2cccc12)c1cnccn1

>  <assaySystem>
SNB-19 CNS

>  <experimentalResult>
> 100 µM

$$$$

Q: Could you tell me which TGI is on file for CC12CC(c3ccccc3O1)C(C(=O)Nc1ccc(F)cc1)C(=O)N2 (stereo not given) ?
A: > 100 µM

Q: Continue with COC(=O)C1OC(O[C@H]2CCC3(C)C(CCC4(C)C3CC=C3C5CC(C)(C)CCC5(C(=O)O)CC[C@]34C)C2(C)C)C(O)C(OC2OC(CO)C(O)C(O)C2O)C1O (stereo not given in full)
A: 15.5 µM
